# experiment: Acute toxicity as LD50 value was determined in mice administered orally
# Assay type: organism-based
# testConditions: mouse, in vivo, po
Exercise: for every item that follows, state its recorded LD50.

Use the examples below as a reference point.
[[record]]
molecule = "COc1cc2c(c(OC)c1OC)-c1ccc(OC)c(=O)cc1[C@@H](NC(C)=O)CC2 [COLCHICINE]"
endpointvalue = "13.5 mg/kg"

[[record]]
molecule = "COc1ccc(/C=C2\\CS(=O)(=O)CC3C2=NN(CCCN2CCN(C)CC2)C3c2ccc(OC)cc2)cc1.O=C(O)/C=C\\C(=O)O (stereo not given)"
endpointvalue = "> 1200 mg/kg"

[[record]]
molecule = "CCCN1N=C2/C(=C/c3ccc(C)cc3)CS(=O)(=O)CC2C1c1ccc(C)cc1 (stereo not given)"
endpointvalue = "> 4000 mg/kg"

[[record]]
molecule = "Cc1ccccc1/C=C1\\CSCC2C1=NN(CCCN1CCN(C)CC1)C2c1ccccc1C.O=C(O)/C=C\\C(=O)O (stereo not given)"
endpointvalue = "> 1200 mg/kg"


GET /values?readout=LD50&item= CC(=O)N1N=C2/C(=C/c3cccc(C(F)(F)F)c3)CS(=O)(=O)CC2C1c1cccc(C(F)(F)F)c1 (stereo not given)
> 7200 mg/kg

* * *

# experiment: Acute toxicity as LD50 value was determined in mice administered intraperitoneally
# Assay type: organism-based
# testConditions: mouse, in vivo, ip
measuredEndpoint: LD50

[[record]]
compound = "Cc1ccccc1/C=C1\\CS(=O)(=O)CC2C1=NN(CCCN1CCN(C)CC1)C2c1ccccc1C.O=C(O)/C=C\\C(=O)O (stereo unspecified)"
measuredendpoint = "LD50"
endpointvalue = "130 mg/kg"

[[record]]
compound = "Cc1ccccc1/C=C1\\CSCC2C1=NN(CCCN1CCN(C)CC1)C2c1ccccc1C.O=C(O)/C=C\\C(=O)O (stereo unspecified)"
measuredendpoint = "LD50"
endpointvalue = "170 mg/kg"


Please report LD50 for every entry that follows.
1. CCCN1N=C2/C(=C/c3ccc(C)cc3)CS(=O)(=O)CC2C1c1ccc(C)cc1 (stereo unspecified)
2. COc1cc2c(c(OC)c1OC)-c1ccc(OC)c(=O)cc1[C@@H](NC(C)=O)CC2
3. CC(=O)N1N=C2/C(=C/c3cccc(C(F)(F)F)c3)CS(=O)(=O)CC2C1c1cccc(C(F)(F)F)c1 (stereo unspecified)
4. COc1ccc(/C=C2\CS(=O)(=O)CC3C2=NN(CCCN2CCN(C)CC2)C3c2ccc(OC)cc2)cc1.O=C(O)/C=C\C(=O)O (stereo unspecified)

1. 3400 mg/kg
2. 3.5 mg/kg
3. > 3200 mg/kg
4. 280 mg/kg

* * *

Exercise: for every item that follows, state its recorded ED50.
# System: Mus musculus
# experiment: The compound was evaluated for the mouse active Arthus (MAA) reaction activity expressed as inhibitory dose after oral administration
# Assay type: functional
# testConditions: read-out: ID50 (the source's name)

Use the examples below as a reference point.
[[record]]
molecule = "CC(C)(C)c1ccc(/C=C2\\CS(=O)(=O)CC3C2=NN(CCc2ccccc2)C3c2ccc(C(C)(C)C)cc2)cc1 (stereo not given)"
endpointvalue = "> 600 mg/kg"

[[record]]
molecule = "COc1ccc(/C=C2\\CS(=O)(=O)CC3C2=NN(CCCN2CCN(C)CC2)C3c2ccc(OC)cc2)cc1.O=C(O)/C=C\\C(=O)O (stereo not given)"
endpointvalue = "234 mg/kg"

[[record]]
molecule = "Cc1ccccc1/C=C1\\CSCC2C1=NN(CCCN1CCN(C)CC1)C2c1ccccc1C.O=C(O)/C=C\\C(=O)O (stereo not given)"
endpointvalue = "225 mg/kg"


Please report ED50 for every entry that follows.
1. CCCN1N=C2/C(=C/c3ccc(C)cc3)CS(=O)(=O)CC2C1c1ccc(C)cc1 (stereo not given)
2. CC(=O)N1N=C2/C(=C/c3cccc(C(F)(F)F)c3)CS(=O)(=O)CC2C1c1cccc(C(F)(F)F)c1 (stereo not given)

> 600 mg/kg
> 600 mg/kg
